biological target: Fibroblast growth factor receptor 1 (Homo sapiens) (UniProt P11362); test: Inhibition of FGFR1 at 10 uM
Sequence (P11362 22-822 limits assumed): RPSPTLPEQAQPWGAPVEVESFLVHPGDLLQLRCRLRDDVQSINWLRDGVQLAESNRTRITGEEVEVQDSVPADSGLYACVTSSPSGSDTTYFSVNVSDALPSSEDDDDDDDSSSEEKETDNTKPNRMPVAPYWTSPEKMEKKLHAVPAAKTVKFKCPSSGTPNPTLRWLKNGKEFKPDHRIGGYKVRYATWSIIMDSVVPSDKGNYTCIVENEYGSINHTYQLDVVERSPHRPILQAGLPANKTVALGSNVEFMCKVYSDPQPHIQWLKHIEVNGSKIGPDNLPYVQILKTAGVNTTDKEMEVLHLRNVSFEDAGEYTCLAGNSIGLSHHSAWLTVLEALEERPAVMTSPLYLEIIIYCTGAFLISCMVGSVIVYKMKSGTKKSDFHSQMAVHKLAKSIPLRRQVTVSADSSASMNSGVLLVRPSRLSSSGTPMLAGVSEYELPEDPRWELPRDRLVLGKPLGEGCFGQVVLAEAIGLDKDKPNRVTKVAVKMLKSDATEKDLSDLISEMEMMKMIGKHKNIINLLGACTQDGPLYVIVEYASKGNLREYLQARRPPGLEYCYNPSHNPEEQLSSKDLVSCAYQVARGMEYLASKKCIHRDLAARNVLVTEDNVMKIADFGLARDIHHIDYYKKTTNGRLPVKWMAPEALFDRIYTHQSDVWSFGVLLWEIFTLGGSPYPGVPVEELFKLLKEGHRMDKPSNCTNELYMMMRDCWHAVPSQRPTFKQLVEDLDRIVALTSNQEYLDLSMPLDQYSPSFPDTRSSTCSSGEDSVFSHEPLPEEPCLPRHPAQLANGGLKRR
For each entry below, report its inhibition value.

According to the records, this compound "FC(F)(F)c1cc(-n2cc(-c3ccccc3NCc3ccncc3)nn2)ccc1Cl" displays inhibition of < 30%

According to the records, this compound "Clc1cccc(-n2cc(-c3ccccc3NCc3c[nH]cn3)nn2)c1" displays inhibition of < 30%

According to the records, this compound "FC(F)(F)c1cccc(-n2cc(-c3ccccc3NCc3ccccn3)nn2)c1" displays inhibition of < 30%

According to the records, this compound "Cc1ccc(-n2cc(-c3ccccc3NCc3ccncc3)nn2)cc1C(F)(F)F" displays inhibition of < 30%

According to the records, this compound "Fc1ccc(CNc2ccccc2-c2cn(-c3cccc(Cl)c3)nn2)cc1F" displays inhibition of < 30%

According to the records, this compound "Clc1cccc(-n2cc(-c3ccccc3NCc3ccc4c(c3)OCO4)nn2)c1" displays inhibition of < 30%

According to the records, this compound "c1ccc(-c2cn(-c3ccc4[nH]ncc4c3)nn2)c(NCc2ccncc2)c1" displays inhibition of < 30%

According to the records, this compound "Clc1ccc(-n2cc(-c3ccccc3NCc3ccncc3)nn2)cc1Cl" displays inhibition of < 30%

According to the records, this compound "FC(F)(F)c1cccc(-n2cc(-c3ccccc3NCc3ccnc4ccccc34)nn2)c1" displays inhibition of < 30%

According to the records, this compound "Clc1cccc(-n2cc(-c3ccccc3NCc3ccnc4ccccc34)nn2)c1" displays inhibition of < 30%

According to the records, this compound "Clc1cccc(-n2cc(-c3ccccc3NCc3ccncc3)nn2)c1" displays inhibition of < 30%

According to the records, this compound "Clc1cccc(-n2cc(-c3ccccc3NCc3cccnc3)nn2)c1" displays inhibition of < 30%

According to the records, this compound "FC(F)(F)Oc1ccc(-n2cc(-c3ccccc3NCc3ccncc3)nn2)cc1" displays inhibition of < 30%

According to the records, this compound "Clc1cccc(-n2cc(-c3ccccc3NCc3ccccn3)nn2)c1" displays inhibition of < 30%

According to the records, this compound "CC(C)c1cccc(-n2cc(-c3ccccc3NCc3ccncc3)nn2)c1" displays inhibition of < 30%

According to the records, this compound "FC(F)(F)c1cccc(-n2cc(-c3ccccc3NCc3ccc4c(c3)OCO4)nn2)c1" displays inhibition of < 30%

According to the records, this compound "c1ccc(-c2cn(-c3ccc4ccccc4n3)nn2)c(NCc2ccncc2)c1" displays inhibition of < 30%

According to the records, this compound "CC(C)(C)c1cccc(-n2cc(-c3ccccc3NCc3ccncc3)nn2)c1" displays inhibition of < 30%

According to the records, this compound "FC(F)(F)c1ccc(-n2cc(-c3ccccc3NCc3ccncc3)nn2)cc1Cl" displays inhibition of < 30%

According to the records, this compound "Clc1ccc(-n2cc(-c3ccccc3NCc3ccncc3)nn2)cc1" displays inhibition of < 30%

According to the records, this compound "FC(F)(F)c1cccc(-n2cc(-c3ccccc3NCc3cccnc3)nn2)c1" displays inhibition of < 30%
